Origin of values: PubChem BioAssay AID2060340

- Tested on: 349418-098-R-PDC spheroids, viability, % test/control;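 note: spheroids exposed to compounds for 7 days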
- experimental_details: Anticancer human tumor 349418-098-R-PDC patient-derived lung adenocarcinoma cell line growth inhibition [IpAb]; active = viability on the fitted dose curve at most 10% of control; inactive = the rest
- assay_conditions: second compound 0.316 µM; first compound 0.0949 µM; spheroids with HUVEC and MSC
Outcome codes: Yes = active, No = inactive

{"compound": "CC(=O)c1c(C)c2cnc(Nc3ccc(N4CCNCC4)cn3)nc2n(C2CCCC2)c1=O + CC(C)NCC(C(=O)N1CCN(c2ncnc3c2C(C)CC3O)CC1)c1ccc(Cl)cc1", "assigned_category": "Yes"}
{"compound": "CC(=O)c1c(C)c2cnc(Nc3ccc(N4CCNCC4)cn3)nc2n(C2CCCC2)c1=O + CCN1CCN(Cc2ccc(Nc3ncc(F)c(-c4cc(F)c5nc(C)n(C(C)C)c5c4)n3)nc2)CC1", "assigned_category": "No"}
{"compound": "CC(C)(C)c1cnc(CSc2cnc(NC(=O)C3CCNCC3)s2)o1 + CCN1CCN(Cc2ccc(Nc3ncc(F)c(-c4cc(F)c5nc(C)n(C(C)C)c5c4)n3)nc2)CC1", "assigned_category": "Yes"}
{"compound": "CC(C)(C)c1cnc(CSc2cnc(NC(=O)C3CCNCC3)s2)o1 + CC(C)NCC(C(=O)N1CCN(c2ncnc3c2C(C)CC3O)CC1)c1ccc(Cl)cc1", "assigned_category": "Yes"}
{"compound": "Cn1cnc2c(F)c(Nc3ccc(Br)cc3Cl)c(C(=O)NOCCO)cc21 + CC(C)NCC(C(=O)N1CCN(c2ncnc3c2C(C)CC3O)CC1)c1ccc(Cl)cc1", "assigned_category": "No"}
{"compound": "Cn1cnc2c(F)c(Nc3ccc(Br)cc3Cl)c(C(=O)NOCCO)cc21 + CCN1CCN(Cc2ccc(Nc3ncc(F)c(-c4cc(F)c5nc(C)n(C(C)C)c5c4)n3)nc2)CC1", "assigned_category": "Yes"}
